Biological target: PI3K α (Homo sapiens, UniProt P42336)
Construct: Full length p110 subunits of PI3K α, β and δ, N-terminally labeled with polyHis tag; polyHis (N)
Sequence (P42336 whole entry, species assumed): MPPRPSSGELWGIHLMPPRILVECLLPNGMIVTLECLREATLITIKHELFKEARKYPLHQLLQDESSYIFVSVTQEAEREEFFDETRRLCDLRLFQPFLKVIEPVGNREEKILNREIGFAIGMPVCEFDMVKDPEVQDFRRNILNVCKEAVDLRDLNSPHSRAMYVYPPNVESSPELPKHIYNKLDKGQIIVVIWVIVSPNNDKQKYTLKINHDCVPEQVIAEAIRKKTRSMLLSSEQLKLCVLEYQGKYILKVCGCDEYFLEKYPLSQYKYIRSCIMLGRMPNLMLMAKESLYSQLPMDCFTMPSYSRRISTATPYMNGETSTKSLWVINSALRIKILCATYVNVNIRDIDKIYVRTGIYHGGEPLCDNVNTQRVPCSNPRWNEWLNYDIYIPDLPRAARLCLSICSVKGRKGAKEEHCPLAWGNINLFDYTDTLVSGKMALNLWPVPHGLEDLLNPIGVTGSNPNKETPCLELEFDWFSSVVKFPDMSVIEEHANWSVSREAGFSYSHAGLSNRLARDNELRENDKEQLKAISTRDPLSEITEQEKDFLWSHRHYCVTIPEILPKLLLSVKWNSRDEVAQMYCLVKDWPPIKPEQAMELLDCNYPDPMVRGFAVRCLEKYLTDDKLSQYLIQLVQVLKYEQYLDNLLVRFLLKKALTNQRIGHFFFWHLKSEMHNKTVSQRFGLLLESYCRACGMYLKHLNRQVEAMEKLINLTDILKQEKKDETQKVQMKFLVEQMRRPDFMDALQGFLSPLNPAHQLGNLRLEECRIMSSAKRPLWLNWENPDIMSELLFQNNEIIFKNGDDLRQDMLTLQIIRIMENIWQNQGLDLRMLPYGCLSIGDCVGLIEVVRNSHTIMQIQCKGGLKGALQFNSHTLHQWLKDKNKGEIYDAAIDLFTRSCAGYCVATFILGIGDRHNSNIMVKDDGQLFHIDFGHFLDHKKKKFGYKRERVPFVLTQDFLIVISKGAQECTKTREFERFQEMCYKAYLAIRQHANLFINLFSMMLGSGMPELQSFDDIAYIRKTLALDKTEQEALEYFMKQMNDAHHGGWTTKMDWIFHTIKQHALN
Sequence (P27986 whole entry partner, species assumed): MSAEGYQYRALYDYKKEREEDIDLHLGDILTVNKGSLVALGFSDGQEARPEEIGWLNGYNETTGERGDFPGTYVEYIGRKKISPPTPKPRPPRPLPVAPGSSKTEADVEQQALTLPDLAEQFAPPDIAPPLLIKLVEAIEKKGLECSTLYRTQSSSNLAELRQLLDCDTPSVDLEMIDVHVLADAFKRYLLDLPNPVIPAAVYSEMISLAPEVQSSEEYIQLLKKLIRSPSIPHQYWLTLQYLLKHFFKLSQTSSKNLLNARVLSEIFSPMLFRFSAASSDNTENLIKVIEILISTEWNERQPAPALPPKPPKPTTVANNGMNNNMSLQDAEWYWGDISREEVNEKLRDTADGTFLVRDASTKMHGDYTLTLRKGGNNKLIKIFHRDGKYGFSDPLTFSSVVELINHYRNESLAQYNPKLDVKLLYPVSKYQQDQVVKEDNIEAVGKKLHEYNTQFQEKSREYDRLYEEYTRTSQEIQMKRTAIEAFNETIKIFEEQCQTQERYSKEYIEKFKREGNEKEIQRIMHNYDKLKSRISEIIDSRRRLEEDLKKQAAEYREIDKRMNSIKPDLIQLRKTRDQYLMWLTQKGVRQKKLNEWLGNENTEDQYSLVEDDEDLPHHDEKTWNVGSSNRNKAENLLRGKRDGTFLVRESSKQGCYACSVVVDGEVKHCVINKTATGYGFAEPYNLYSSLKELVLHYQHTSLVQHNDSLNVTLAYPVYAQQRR
Experiment: In vitro PI3 kinase enzyme assay (alpha), ATP loss, bioluminescence;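 also: purified p110α/p85 heterodimer acting on PtdIns(4,5)P2 at room temperature, remaining ATP read by luminescence, inhibition scaled between compound-free wells with and without enzyme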
Conditions: read-out: PI3Kα ATP loss IC50
measurement.type: IC50 (nM)
One number for each entry, in nM.

Please review the following examples before continuing.
# smiles.string, units.label, IC50
data = [
    ("CC(=O)Nc1nc2ccc(-c3ccnc(OCc4ccc5c(c4)OCO5)n3)cc2s1", "nM", 83.4),
    ("COc1ccc(S(=O)(=O)c2cccc(-c3cc(F)c4nc(NC(C)=O)sc4c3)n2)cc1", "nM", 151),
]

Okay, next one:
Record summary for Nc1nc2ccc(-c3ccnc(NCCCc4ccccc4)n3)cc2s1 : reported IC50 = 1970
